target: histone deacetylase (HeLa nuclear extracts)
method.description: In vitro assay for inhibition of histone deacetylase
Assay type: biochemical
applied.conditions: [3H]acetylated histone H4 peptide substrate
The compounds listed here are annotated with their Enzyme activity pIC50.

# annotated cases, reported Enzyme activity pIC50 shown
[[record]]
entry_smiles = "CCOc1nc(N2CCN(S(=O)(=O)c3ccc4ccccc4c3)CC2)ncc1C(=O)NO"
test_result = "<5"

[[record]]
entry_smiles = "O=C(Nc1ccc(N2CCN(S(=O)(=O)c3ccc4ccccc4c3)CC2)cc1)c1ccc[nH]c1=O"
test_result = "<5"

[[record]]
entry_smiles = "O=C(Nc1ccc(N2CCN(S(=O)(=O)c3ccc4ccccc4c3)CC2)cc1)/C(Cc1ccccc1)=N/O"
test_result = "<5"


We next turn to a different compound, shown below.
Can you look up the measured Enzyme activity pIC50 of O=C(CS)Nc1ccc(N2CCN(S(=O)(=O)c3ccc4ccccc4c3)CC2)cc1 for me?
<5

Source of measurements: patent US7205304B2
